target: Serotonin 3 (5-HT3) receptor (Rattus norvegicus, UniProt P35563+Q9JJ16); assay: Binding affinity towards 5-hydroxytryptamine 3 receptor
Sequence (P35563 whole entry): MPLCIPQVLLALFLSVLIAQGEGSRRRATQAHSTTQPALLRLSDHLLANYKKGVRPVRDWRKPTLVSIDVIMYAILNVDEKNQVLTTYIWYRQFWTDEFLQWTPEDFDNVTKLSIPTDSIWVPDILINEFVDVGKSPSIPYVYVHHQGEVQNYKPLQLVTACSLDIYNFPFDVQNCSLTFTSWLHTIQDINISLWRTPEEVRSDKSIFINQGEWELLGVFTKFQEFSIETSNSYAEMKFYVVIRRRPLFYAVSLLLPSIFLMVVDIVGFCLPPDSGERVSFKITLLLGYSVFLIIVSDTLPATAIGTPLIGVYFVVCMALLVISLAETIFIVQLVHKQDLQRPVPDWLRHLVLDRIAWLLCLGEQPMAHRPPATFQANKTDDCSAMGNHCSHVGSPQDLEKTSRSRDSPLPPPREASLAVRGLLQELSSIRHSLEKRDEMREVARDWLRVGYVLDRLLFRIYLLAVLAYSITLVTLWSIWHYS
Sequence (Q9JJ16 whole entry): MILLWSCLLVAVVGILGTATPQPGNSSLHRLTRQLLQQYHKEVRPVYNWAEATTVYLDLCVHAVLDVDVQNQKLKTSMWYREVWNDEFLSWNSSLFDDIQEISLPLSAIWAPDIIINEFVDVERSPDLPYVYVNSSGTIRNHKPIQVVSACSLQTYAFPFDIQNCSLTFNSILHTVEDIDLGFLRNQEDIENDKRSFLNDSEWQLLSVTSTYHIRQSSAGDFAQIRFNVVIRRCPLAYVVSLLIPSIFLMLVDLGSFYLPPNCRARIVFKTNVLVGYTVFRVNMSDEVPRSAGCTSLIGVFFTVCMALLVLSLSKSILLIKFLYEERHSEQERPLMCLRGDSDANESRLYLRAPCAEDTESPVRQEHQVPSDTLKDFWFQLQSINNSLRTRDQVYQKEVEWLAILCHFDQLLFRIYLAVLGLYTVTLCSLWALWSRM
PROPERTY LABEL: IC50 (µM)

STRUCTURE SMILES | TEST TARGET | QUALIFIER SYMBOL | NUMBER
FC(F)(F)c1cccc(N2CCN(c3nc4cc(-c5ccccc5)sc4n4cccc34)CC2)c1 | Serotonin 3 (5-HT3) receptor (Rattus norvegicus, UniProt P35563+Q9JJ16) | > | 100
Fc1ccc(N2CCN(c3nc4ccsc4n4cccc34)CC2)cc1 | Serotonin 3 (5-HT3) receptor (Rattus norvegicus, UniProt P35563+Q9JJ16) | = | 97.7
Fc1ccc(CN2CCN(Cc3nc4ccsc4n4cccc34)CC2)cc1 | Serotonin 3 (5-HT3) receptor (Rattus norvegicus, UniProt P35563+Q9JJ16) | = | 18.2
Cc1sc2c(nc(N3CCN(Cc4ccccc4)CC3)c3cccn32)c1C | Serotonin 3 (5-HT3) receptor (Rattus norvegicus, UniProt P35563+Q9JJ16) | = | 3.63
c1ccc(N2CCN(c3nc4ccsc4n4cccc34)CC2)cc1 | Serotonin 3 (5-HT3) receptor (Rattus norvegicus, UniProt P35563+Q9JJ16) | > | 100
c1ccc(CN2CCN(c3nc4cc(-c5ccccc5)sc4n4cccc34)CC2)cc1 | Serotonin 3 (5-HT3) receptor (Rattus norvegicus, UniProt P35563+Q9JJ16) | = | 589
Clc1ccc(CN2CCN(c3nc4sccc4n4cccc34)CC2)c(Cl)c1 | Serotonin 3 (5-HT3) receptor (Rattus norvegicus, UniProt P35563+Q9JJ16) | = | 4.17
c1cc2c(N3CCCCC3)nc3ccsc3n2c1 | Serotonin 3 (5-HT3) receptor (Rattus norvegicus, UniProt P35563+Q9JJ16) | = | 72.4
FC(F)(F)c1cccc(N2CCN(c3nc4sccc4n4cccc34)CC2)c1 | Serotonin 3 (5-HT3) receptor (Rattus norvegicus, UniProt P35563+Q9JJ16) | = | 74.1
CN1CCN(c2nc3cc(-c4ccccc4)sc3n3cccc23)CC1 | Serotonin 3 (5-HT3) receptor (Rattus norvegicus, UniProt P35563+Q9JJ16) | = | 19.1
c1ccc(CN2CCN(c3nc4sc(-c5ccccc5)cc4n4cccc34)CC2)cc1 | Serotonin 3 (5-HT3) receptor (Rattus norvegicus, UniProt P35563+Q9JJ16) | = | 39.8
